Data provenance is paper PMC5686190.

# Lookup of reported log10 IC50 keyed by entry
Molecular target: recombinant NA-1 (H1N1 neuraminidase) (Influenza A virus)
Sequence (Q9IGQ6 whole entry, looked up): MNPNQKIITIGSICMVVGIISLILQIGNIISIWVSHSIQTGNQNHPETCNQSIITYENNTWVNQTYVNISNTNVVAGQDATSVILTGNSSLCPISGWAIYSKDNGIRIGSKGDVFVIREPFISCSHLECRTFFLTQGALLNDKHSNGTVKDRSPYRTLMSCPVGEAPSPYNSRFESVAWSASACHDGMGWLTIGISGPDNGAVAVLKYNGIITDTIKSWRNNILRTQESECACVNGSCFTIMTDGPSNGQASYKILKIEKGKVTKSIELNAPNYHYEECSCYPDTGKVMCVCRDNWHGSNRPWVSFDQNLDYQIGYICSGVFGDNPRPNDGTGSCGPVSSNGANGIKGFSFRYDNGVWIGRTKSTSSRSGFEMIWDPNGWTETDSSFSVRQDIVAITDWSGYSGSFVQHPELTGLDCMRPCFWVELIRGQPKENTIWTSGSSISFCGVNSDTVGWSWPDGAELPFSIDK
Assay: biochemical
Measure: log10 IC50 (log10 of the value in µM)

>>> df
                                    compound                               measured_on  measured_value
 0  COc1cc2c(cc1O)C[C@H]1c3cc(O)c(OC)cc3CC[N@@+]1(C)C2 [Phellodendrine]  recombinant NA-1 (H1N1 neuraminidase) (Influenza A virus)            2.78
 1  COc1cc2c(cc1OC)-c1cc3ccc(OC)c(OC)c3c[n+]1CC2 [Palmatine]  recombinant NA-1 (H1N1 neuraminidase) (Influenza A virus)            1.70
 2  COc1ccc2cc3[n+](cc2c1OC)CCc1cc2c(cc1-3)OCO2 [Berberine]  recombinant NA-1 (H1N1 neuraminidase) (Influenza A virus)            2.37
 3  COc1cc2c(cc1OC)-c1cc3ccc4c(c3c[n+]1CC2)OCO4 [Epiberberine]  recombinant NA-1 (H1N1 neuraminidase) (Influenza A virus)            2.00
 4  O=C(O)[C@H]1O[C@@H](Oc2cc3oc(-c4ccccc4)cc(=O)c3c(O)c2O)[C@H](O)[C@@H](O)[C@@H]1O [Baicalin]  recombinant NA-1 (H1N1 neuraminidase) (Influenza A virus)            3.22
 5  COc1c(O[C@@H]2O[C@H](C(=O)O)[C@@H](O)[C@H](O)[C@H]2O)cc2oc(-c3ccccc3)cc(=O)c2c1O [Oroxylin A 7-O-β-D-glucuronide]  recombinant NA-1 (H1N1 neuraminidase) (Influenza A virus)            2.79
 6  COc1c(O[C@@H]2O[C@H](C(=O)O)[C@@H](O)[C@H](O)[C@H]2O)cc(O)c2c(=O)cc(-c3ccccc3)oc12 [Wogonoside]  recombinant NA-1 (H1N1 neuraminidase) (Influenza A virus)            2.61
 7  O=c1cc(-c2ccccc2)oc2cc(O)c(O)c(O)c12 [Baicalein]  recombinant NA-1 (H1N1 neuraminidase) (Influenza A virus)            2.77
 8  COc1c(O)cc2oc(-c3ccccc3)cc(=O)c2c1O [Oroxylin A]  recombinant NA-1 (H1N1 neuraminidase) (Influenza A virus)            2.31
 9  COc1cc2c(cc1O)CC[n+]1cc3c(OC)c(OC)ccc3cc1-2 [Jatrorrhizine]  recombinant NA-1 (H1N1 neuraminidase) (Influenza A virus)            1.83
10  COc1c(O)cc(O)c2c(=O)cc(-c3ccccc3)oc12 [Wogonin]  recombinant NA-1 (H1N1 neuraminidase) (Influenza A virus)            2.94
11  COC(=O)C1=CO[C@@H](O[C@@H]2O[C@H](CO)[C@@H](O)[C@H](O)[C@H]2O)[C@@H]2C(CO)=CC[C@H]12 [Geniposide]  recombinant NA-1 (H1N1 neuraminidase) (Influenza A virus)            1.94
12  c1c2c(cc3c1OCO3)-c1cc3ccc4c(c3c[n+]1CC2)OCO4 [Coptisine]  recombinant NA-1 (H1N1 neuraminidase) (Influenza A virus)            2.51
